Data provenance: the supplement of paper PMC10567573

Would you mind telling me the reported protein stability index of each entry?
B1: MYOZ1 (parent)
chain: FSDSSMDHFQKFLPTVGGQLGTAG

variants of: B1; assay: protein stability index of a GFP-peptide fusion (GPS, HEK-293T) (PSI 1-6); higher = more stable; settings: c terminus: a fixed tail appended;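 further: lentivirally expressed fusions sorted by FACS into six bins by GFP to DsRed ratio, PSI derived from sequencing read proportions per bin multiplied by bin number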
Simply state the number, no unit and no words.

IN: Requested field: protein stability index. Item: F12E
OUT: 4.6

IN: Find the recorded protein stability index belonging to G17V and report it.
OUT: 2.38

IN: Give the measured protein stability index of S5A .
OUT: 3.02

IN: What value of protein stability index has been reported for the following variant? T15G
OUT: 2.46

IN: Please report the recorded protein stability index for L20R .
OUT: 2.98

IN: Please give the measured protein stability index for this variant: G17E
OUT: 2.98

IN: Requested read-out: protein stability index. Entry: S2R
OUT: 1.94

IN: Record request: protein stability index value, item D3V
OUT: 1.96

IN: # protein stability index lookup, item L20T
OUT: 2.53

IN: Look up protein stability index: G17A
OUT: 2.48

IN: Look up protein stability index: F1H
OUT: 3.88

IN: What does the data say about its protein stability index? Entry: L13S
OUT: 2.76

IN: Requested read-out: protein stability index. Entry: L13C
OUT: 2.75

IN: I have this variant here, D7A , and I need its recorded protein stability index.
OUT: 1.38

IN: Can you look up the measured protein stability index of G18I for me?
OUT: 1.52

IN: Data request, read-out protein stability index, for K11G
OUT: 3.21

IN: Which protein stability index value is on record for F12K ?
OUT: 3.67

IN: Quick one: protein stability index of A23I ?
OUT: 1.91

IN: Fill blank: measured protein stability index of the variant L13W is ____.
OUT: 1.82

IN: Quick one: protein stability index for D3M ?
OUT: 1.45

IN: Please look up its protein stability index: D3L
OUT: 1.55

IN: # input variant: A23G ; wanted: its protein stability index
OUT: 2.77
